# system_under_test: Kappa-type opioid receptor (Homo sapiens)
# Sequence (P41145 whole entry): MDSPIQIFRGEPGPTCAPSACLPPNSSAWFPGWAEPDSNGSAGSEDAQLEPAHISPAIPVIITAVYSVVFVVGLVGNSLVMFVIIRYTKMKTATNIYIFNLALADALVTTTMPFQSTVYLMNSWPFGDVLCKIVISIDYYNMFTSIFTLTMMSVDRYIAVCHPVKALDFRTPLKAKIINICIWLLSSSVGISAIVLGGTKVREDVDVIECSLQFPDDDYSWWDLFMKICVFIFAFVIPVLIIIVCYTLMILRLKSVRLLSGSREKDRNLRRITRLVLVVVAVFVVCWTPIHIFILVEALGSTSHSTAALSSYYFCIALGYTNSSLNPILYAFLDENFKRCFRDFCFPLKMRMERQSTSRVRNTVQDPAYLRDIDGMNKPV
# Assay type: functional
recorded_endpoint: IC50 (nM)
Report as a plain number; the unit nM is understood.

// query # return recorded IC50 for entry "Cc1ccc(C(=O)N[C@@H](C)CN2C3=NC[C@@H](Cc4ccccc4)N3C[C@H]2Cc2ccc(O)cc2)cc1Br"
// result 1440

---

# system_under_test: Fatty acid synthase (Homo sapiens)
# Sequence (P49327 whole entry, the tested form may be a part): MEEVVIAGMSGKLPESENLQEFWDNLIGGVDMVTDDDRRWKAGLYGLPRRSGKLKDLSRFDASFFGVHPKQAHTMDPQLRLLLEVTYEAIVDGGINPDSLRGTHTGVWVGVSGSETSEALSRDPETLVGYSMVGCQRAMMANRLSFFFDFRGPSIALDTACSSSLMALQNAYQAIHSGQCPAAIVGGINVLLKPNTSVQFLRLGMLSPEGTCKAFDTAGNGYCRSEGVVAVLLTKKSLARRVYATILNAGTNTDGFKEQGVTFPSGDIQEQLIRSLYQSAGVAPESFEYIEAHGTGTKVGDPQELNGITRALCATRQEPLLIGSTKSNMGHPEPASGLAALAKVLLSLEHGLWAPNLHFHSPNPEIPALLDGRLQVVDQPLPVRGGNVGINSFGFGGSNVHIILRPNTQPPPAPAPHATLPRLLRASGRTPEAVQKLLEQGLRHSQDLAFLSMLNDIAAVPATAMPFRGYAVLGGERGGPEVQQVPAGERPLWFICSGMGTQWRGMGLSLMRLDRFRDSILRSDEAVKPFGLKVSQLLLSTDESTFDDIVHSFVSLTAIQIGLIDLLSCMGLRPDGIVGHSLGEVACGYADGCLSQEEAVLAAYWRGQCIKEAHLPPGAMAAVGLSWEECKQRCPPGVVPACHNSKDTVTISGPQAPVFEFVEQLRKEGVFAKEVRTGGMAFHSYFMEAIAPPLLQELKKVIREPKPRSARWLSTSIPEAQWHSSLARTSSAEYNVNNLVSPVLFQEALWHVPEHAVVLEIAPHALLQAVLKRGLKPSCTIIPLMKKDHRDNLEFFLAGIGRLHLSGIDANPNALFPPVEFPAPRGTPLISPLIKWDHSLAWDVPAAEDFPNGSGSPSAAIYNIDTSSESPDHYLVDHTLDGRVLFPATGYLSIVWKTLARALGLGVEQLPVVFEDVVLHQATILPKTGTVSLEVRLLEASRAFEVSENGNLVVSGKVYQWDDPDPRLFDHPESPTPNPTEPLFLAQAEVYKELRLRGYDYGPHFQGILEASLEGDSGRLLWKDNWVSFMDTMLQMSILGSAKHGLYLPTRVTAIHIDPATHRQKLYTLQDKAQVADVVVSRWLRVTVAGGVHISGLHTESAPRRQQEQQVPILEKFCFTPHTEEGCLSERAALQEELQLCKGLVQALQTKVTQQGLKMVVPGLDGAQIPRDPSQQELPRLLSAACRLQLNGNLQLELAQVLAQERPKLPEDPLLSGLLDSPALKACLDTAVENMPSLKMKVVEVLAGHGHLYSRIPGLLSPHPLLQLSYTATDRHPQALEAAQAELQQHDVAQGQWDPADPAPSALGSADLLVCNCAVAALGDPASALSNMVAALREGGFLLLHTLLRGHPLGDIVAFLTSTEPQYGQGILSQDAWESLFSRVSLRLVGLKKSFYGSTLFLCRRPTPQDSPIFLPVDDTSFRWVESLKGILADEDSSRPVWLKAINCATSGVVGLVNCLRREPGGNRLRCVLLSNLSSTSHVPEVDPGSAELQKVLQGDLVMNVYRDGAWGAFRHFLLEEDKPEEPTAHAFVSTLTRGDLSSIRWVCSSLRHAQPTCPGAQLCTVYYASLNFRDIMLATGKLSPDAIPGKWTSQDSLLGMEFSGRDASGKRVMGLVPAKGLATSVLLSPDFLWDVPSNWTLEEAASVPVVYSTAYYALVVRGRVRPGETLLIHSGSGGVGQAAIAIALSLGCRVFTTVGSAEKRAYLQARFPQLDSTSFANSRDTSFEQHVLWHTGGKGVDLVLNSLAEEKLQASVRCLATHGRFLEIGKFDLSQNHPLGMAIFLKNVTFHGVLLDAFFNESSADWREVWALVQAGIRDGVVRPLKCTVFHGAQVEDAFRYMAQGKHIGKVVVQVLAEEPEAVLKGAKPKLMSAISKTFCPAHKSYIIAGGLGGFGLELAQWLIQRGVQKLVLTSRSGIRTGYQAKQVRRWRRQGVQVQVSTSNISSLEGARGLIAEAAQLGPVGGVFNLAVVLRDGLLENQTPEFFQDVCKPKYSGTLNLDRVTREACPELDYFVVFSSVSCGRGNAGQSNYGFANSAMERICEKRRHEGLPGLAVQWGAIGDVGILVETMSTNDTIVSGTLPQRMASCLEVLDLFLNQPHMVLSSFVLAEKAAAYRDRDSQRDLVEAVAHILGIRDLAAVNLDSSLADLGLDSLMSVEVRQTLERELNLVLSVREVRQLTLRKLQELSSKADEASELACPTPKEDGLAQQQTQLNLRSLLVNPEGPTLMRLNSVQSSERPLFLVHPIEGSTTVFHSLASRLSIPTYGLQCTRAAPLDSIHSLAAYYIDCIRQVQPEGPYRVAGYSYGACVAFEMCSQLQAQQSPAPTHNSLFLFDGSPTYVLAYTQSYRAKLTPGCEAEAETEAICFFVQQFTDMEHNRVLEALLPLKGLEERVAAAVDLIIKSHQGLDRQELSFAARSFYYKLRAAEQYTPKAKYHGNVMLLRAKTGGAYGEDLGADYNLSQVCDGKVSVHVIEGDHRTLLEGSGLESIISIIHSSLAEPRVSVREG
# test_protocol: FAS thioesterase domain inhibitors, dose response, biochemical, kinetic fluorescence intensity (AID 624326);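 also: rate of fluorescence rise from hydrolysis of a fluorogenic O-methyl fluorescein ester substrate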
# Assay type: functional
Activity calls are given as the source filed them. Cut-off read from the data, not from the text of the source: active = IC50 of 20 µM or less and inactive = more.
Give measured IC50 for each item. Keep answers brief.

// query Return reported IC50. Input compound: "Cn1c(SCc2cccc(Cl)c2)nc(C(F)(F)F)cc1=O"
// result 12.2 µM (active)

// query For the compound "COc1ccc(CNC(=O)C[C@H]2C[C@H](C(=O)N3CCOCC3)[C@@]3(CCC4CCCC4)c4[nH]c5ccc(Cl)cc5c4CCN3C2=O)cc1OC" , give its measured IC50 value.
// result 0.878 µM (active)

// query Answer with reported IC50 of "CC(=O)OCCCNc1cc(Sc2nc3ccccc3s2)c2nonc2c1[N+](=O)[O-]"
// result 1.35 µM (active)

// query // fetch IC50 given entry "O=C(COC(=O)c1cc([N+](=O)[O-])ccc1N1CCOCC1)Nc1ccc(Cl)cc1"
// result 1.96 µM (active)

// query Hello, please tell me recorded IC50 for this one: CC1CCCN(C(=O)COC(=O)c2cc([N+](=O)[O-])ccc2N2CCOCC2)C1 (stereo unspecified)
// result 1.91 µM (active)

// query Given "Cc1ccc(S(=O)(=O)N2CCN(C(=O)COC(=O)c3cc([N+](=O)[O-])ccc3NCCO)CC2)c(C)c1" , respond with its IC50.
// result 2.7 µM (active)

// query Please list IC50 recorded for the compound "O=C(NC12CC3CC(CC(C3)C1)C2)c1cc([N+](=O)[O-])ccc1N1CCOCC1"
// result 14.7 µM (active)

// query In one line, give reported IC50 of the entry "CCOC(=O)CCSc1nc2c(c(C(F)(F)F)c1C#N)CCC2" .
// result 8.57 µM (active)

// query Supply measured IC50 of "Cc1cc(C)c([N+](=O)[O-])cc1NCC(=O)N1CCN(c2ccccc2)CC1" in your reply.
// result 6.55 µM (active)

// query Note down IC50 recorded for "COc1ccc(Cl)cc1-c1cc(C(=O)NCc2ccc(C(F)(F)F)cc2)[nH]n1"
// result 17.1 µM (active)

// query Write down IC50 measured for item "CC(C)(C)c1ccc(/C=N/Nc2ccc(C(=O)O)cc2)cc1"
// result 8.76 µM (active)
